Origin of measurements: patent US20260285855A1

# SYSTEM: DDR2 (Homo sapiens)
# Construct: purchased Life Technologies
# Sequence (Q16832 22-855): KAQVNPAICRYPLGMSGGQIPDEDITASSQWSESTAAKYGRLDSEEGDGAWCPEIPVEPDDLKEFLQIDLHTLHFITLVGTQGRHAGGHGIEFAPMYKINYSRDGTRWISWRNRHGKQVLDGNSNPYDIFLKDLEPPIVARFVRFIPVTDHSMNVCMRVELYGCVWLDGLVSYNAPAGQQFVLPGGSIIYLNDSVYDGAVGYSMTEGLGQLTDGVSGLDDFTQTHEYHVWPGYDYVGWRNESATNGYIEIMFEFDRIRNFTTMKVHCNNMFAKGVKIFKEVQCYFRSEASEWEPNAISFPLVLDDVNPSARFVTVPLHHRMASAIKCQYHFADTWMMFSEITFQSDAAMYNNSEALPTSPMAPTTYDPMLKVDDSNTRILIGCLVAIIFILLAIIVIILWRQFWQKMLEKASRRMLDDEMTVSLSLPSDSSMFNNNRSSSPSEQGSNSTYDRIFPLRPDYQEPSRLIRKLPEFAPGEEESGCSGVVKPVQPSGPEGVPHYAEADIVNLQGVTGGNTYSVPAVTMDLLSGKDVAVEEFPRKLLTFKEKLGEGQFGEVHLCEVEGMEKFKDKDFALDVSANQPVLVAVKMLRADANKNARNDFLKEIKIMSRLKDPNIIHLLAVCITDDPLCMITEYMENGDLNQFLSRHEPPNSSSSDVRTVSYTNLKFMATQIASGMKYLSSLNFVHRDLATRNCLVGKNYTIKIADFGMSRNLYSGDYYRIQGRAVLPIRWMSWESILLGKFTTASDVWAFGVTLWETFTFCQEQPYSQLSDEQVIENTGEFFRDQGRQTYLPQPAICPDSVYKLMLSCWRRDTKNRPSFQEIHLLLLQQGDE
# PROCEDURE TEXT: LanthaScreen Europium Kinase Binding assay, DDR2
# CONDITION SET: same binding assay; numeric values; read-out: DDR2 Ki
pKi: −log10 of the molar value.
EXPERIMENTAL READOUT: pKi

Below: 2 compounds and their reported pKi.
O=C(NC1CC2(C1)CN(C(=O)c1cnn3ccncc13)C2)c1cccc(C(F)(F)F)c1 [Example C1, reference compound] :: < 6.30
O=C(Cc1cccc(C(F)(F)F)c1)NC1CC2(C1)CN(C(=O)c1cnn3ccncc13)C2 [Example C2, reference compound] :: < 6.30

Let's switch to this compound now.
query: For the record O=C(NC1CC2(C1)CN(C(=O)Nc1cccc(C(F)(F)F)c1)C2)c1cnn2ccncc12 [Example C3, reference compound] , what value of pKi is listed for DDR2 (Homo sapiens)?
result: < 6.30
